Origin of the recorded values: patent US20220323594A1

Tested on: HeLa cells
Assay: In vitro Fluc expression with variable peptoid:mRNA mass ratio, 2% DMG-PEG2000
Format: cell-based
Conditions: 24 h, 2% (w/w) DMG-PEG2000, peptoid:mRNA 2:1
Measured Observed Luciferase Expression (RLU) for Given Formulation Mass Ratio 2:1 accompanies every entry in the list below.
parameter: Observed Luciferase Expression (RLU) for Given Formulation Mass Ratio 2:1

molecule: CCCCCCCCCCN(CC(N)=O)C(=O)CN(CCCCCCCCCC)C(=O)CN(CCN)C(=O)CN(CCN)C(=O)CN(CCN)C(=O)CN(CCN)C(=O)CN(CCN)C(=O)CN(CCN)C(=O)CN(CCN)C(=O)CN(CCN)C(=O)CNCCN [Compound 16]
result: 1.01E+02 RLU

molecule: CCCCCCCCCCN(CC(N)=O)C(=O)CN(CCCCCCCCCC)C(=O)CN(CCCCCCCCCC)C(=O)CN(CCCCCCCCCC)C(=O)CN(CCCCCCCCCC)C(=O)CN(CCCCCCCCCC)C(=O)CN(CCCCCCCCCC)C(=O)CN(CCc1ccccc1)C(=O)CN(CCc1ccccc1)C(=O)CN(CCN)C(=O)CN(CCc1ccccc1)C(=O)CN(CCc1ccccc1)C(=O)CN(CCN)C(=O)CN(CCc1ccccc1)C(=O)CN(CCc1ccccc1)C(=O)CNCCN [Compound 23]
result: 5.47E+01 RLU

molecule: CCCCCCCCCCN(CC(N)=O)C(=O)CN(CCCCCCCCCC)C(=O)CN(CCCCCCCCCC)C(=O)CN(CCCCCCCCCC)C(=O)CN(CCCCCCCCCC)C(=O)CN(CCCCCCCCCC)C(=O)CN(CCc1ccccc1)C(=O)CN(CCc1ccccc1)C(=O)CN(CCN)C(=O)CN(CCc1ccccc1)C(=O)CN(CCc1ccccc1)C(=O)CN(CCN)C(=O)CN(CCc1ccccc1)C(=O)CN(CCc1ccccc1)C(=O)CNCCN [Compound 22]
result: 3.53E+01 RLU

molecule: CCCCCCCCCCN(CC(N)=O)C(=O)CN(CCCCCCCCCC)C(=O)CN(CCN)C(=O)CN(CCN)C(=O)CN(CCN)C(=O)CN(CCN)C(=O)CNCCN [Compound 15]
result: 8.85E+01 RLU

molecule: CCCCCCCCCCN(CC(N)=O)C(=O)CN(CCCCCCCCCC)C(=O)CN(CCCCCCCCCC)C(=O)CN(CCCCCCCCCC)C(=O)CN(CCc1ccccc1)C(=O)CN(CCc1ccccc1)C(=O)CN(CC1CCNCC1)C(=O)CN(CCc1ccccc1)C(=O)CN(CCc1ccccc1)C(=O)CN(CC1CCNCC1)C(=O)CN(CCc1ccccc1)C(=O)CN(CCc1ccccc1)C(=O)CN(CC1CCNCC1)C(=O)CN(CCc1ccccc1)C(=O)CN(CCc1ccccc1)C(=O)CNCC1CCNCC1 [Compound 32]
result: 1.82E+02 RLU

* * *

Assay: Dynamic light scattering (DLS) of mRNA/peptoid formulations: particle size and polydispersity
Format: physicochemical
Details: size polydispersity index by DLS; Fluc mRNA/peptoid formulation, 5:1 mass ratio
parameter: Size PDI

compound: CCCCCCCCCCN(CC(N)=O)C(=O)CN(CCc1ccccc1)C(=O)CN(CCc1ccccc1)C(=O)CN(CCN)C(=O)CN(CCc1ccccc1)C(=O)CN(CCc1ccccc1)C(=O)CN(CCN)C(=O)CN(CCc1ccccc1)C(=O)CN(CCc1ccccc1)C(=O)CNCCN [Compound 6]
result.number: 0.348
--
compound: CCCCCCCCCCN(CC(N)=O)C(=O)CN(CCCCCCCCCC)C(=O)CN(CCc1ccccc1)C(=O)CN(CCc1ccccc1)C(=O)CN(CCNC)C(=O)CN(CCc1ccccc1)C(=O)CN(CCc1ccccc1)C(=O)CN(CCNC)C(=O)CN(CCc1ccccc1)C(=O)CN(CCc1ccccc1)C(=O)CNCCNC [Compound 27]
result.number: 0.606
--
compound: CCCCCCCCCCN(CC(N)=O)C(=O)CN(CCCCCCCCCC)C(=O)CN(CCN)C(=O)CN(CCN)C(=O)CN(CCN)C(=O)CN(CCN)C(=O)CNCCN [Compound 15]
result.number: 1
--
compound: CCCCCCCCCCN(CC(N)=O)C(=O)CN(CCCCCCCCCC)C(=O)CN(CCc1ccccc1)C(=O)CN(CCN)C(=O)CN(CCc1ccccc1)C(=O)CN(CCN)C(=O)CN(CCc1ccccc1)C(=O)CNCCN [Compound 13]
result.number: 0.447
--
compound: CCCCCCCCN(CC(N)=O)C(=O)CN(CCCCCCCC)C(=O)CN(CCc1ccccc1)C(=O)CN(CCc1ccccc1)C(=O)CN(CCN)C(=O)CN(CCc1ccccc1)C(=O)CN(CCc1ccccc1)C(=O)CN(CCN)C(=O)CN(CCc1ccccc1)C(=O)CN(CCc1ccccc1)C(=O)CNCCN [Compound 1]
result.number: 0.047
--
compound: CCCCCCCCCCN(CC(N)=O)C(=O)CN(CCCCCCCCCC)C(=O)CN(CCc1ccccc1)C(=O)CN(CCc1ccccc1)C(=O)CN(CCN)C(=O)CN(CCc1ccccc1)C(=O)CN(CCc1ccccc1)C(=O)CNCCN [Compound 10]
result.number: 0.009
--
compound: CCCCCCCCCCN(CC(N)=O)C(=O)CN(CCCCCCCCCC)C(=O)CN(CCc1ccccc1)C(=O)CN(CCc1ccccc1)C(=O)CN(CCCN)C(=O)CN(CCc1ccccc1)C(=O)CN(CCc1ccccc1)C(=O)CN(CCCN)C(=O)CN(CCc1ccccc1)C(=O)CN(CCc1ccccc1)C(=O)CNCCCN [Compound 30]
result.number: 0.455
--
compound: CCCCCCCCCCN(CC(N)=O)C(=O)CN(CCCCCCCCCC)C(=O)CN(CCCCCCCCCC)C(=O)CN(CCCCCCCCCC)C(=O)CN(CCc1ccccc1)C(=O)CN(CCc1ccccc1)C(=O)CN(CCNC)C(=O)CN(CCc1ccccc1)C(=O)CN(CCc1ccccc1)C(=O)CN(CCNC)C(=O)CN(CCc1ccccc1)C(=O)CN(CCc1ccccc1)C(=O)CNCCNC [Compound 25]
result.number: 0.021
--
compound: CCCCCCCCCCN(CC(=O)N(CCN)CC(=O)N(CCc1ccccc1)CC(=O)N(CCc1ccccc1)CC(=O)N(CCCCCCCCCC)CC(=O)N(CCN)CC(=O)N(CCc1ccccc1)CC(=O)N(CCc1ccccc1)CC(N)=O)C(=O)CN(CCc1ccccc1)C(=O)CN(CCc1ccccc1)C(=O)CNCCN [Compound 17]
result.number: 0.37
--
compound: CCCCCCCCCCNCC(=O)N(CCN)CC(=O)N(CCc1ccccc1)CC(=O)N(CCc1ccccc1)CC(=O)N(CCN)CC(=O)N(CCc1ccccc1)CC(=O)N(CCc1ccccc1)CC(=O)N(CCN)CC(=O)N(CCc1ccccc1)CC(=O)N(CCc1ccccc1)CC(=O)N(CCCCCCCCCC)CC(N)=O [Compound 18]
result.number: 0.762
--
compound: CCCCCCCCCCN(CC(N)=O)C(=O)CN(CCCCCCCCCC)C(=O)CN(CCCCCCCCCC)C(=O)CN(CCCCCCCCCC)C(=O)CN(CCCCCCCCCC)C(=O)CN(CCCCCCCCCC)C(=O)CN(CCc1ccccc1)C(=O)CN(CCc1ccccc1)C(=O)CN(CCN)C(=O)CN(CCc1ccccc1)C(=O)CN(CCc1ccccc1)C(=O)CN(CCN)C(=O)CN(CCc1ccccc1)C(=O)CN(CCc1ccccc1)C(=O)CNCCN [Compound 22]
result.number: 0.538
--
compound: CCCCCCCCCCN(CC(N)=O)C(=O)CN(CCCCCCCCCC)C(=O)CN(CCc1ccccc1)C(=O)CN(CCc1ccccc1)C(=O)CN(CCN)C(=O)CN(CCc1ccccc1)C(=O)CN(CCc1ccccc1)C(=O)CN(CCN)C(=O)CN(CCc1ccccc1)C(=O)CN(CCc1ccccc1)C(=O)CN(CCN)C(=O)CN(CCc1ccccc1)C(=O)CN(CCc1ccccc1)C(=O)CNCCN [Compound 11]
result.number: 0.038
--
compound: CCCCCCCCCCN(CC(N)=O)C(=O)CN(CCCCCCCCCC)C(=O)CN(CCCCCCCCCC)C(=O)CN(CCCCCCCCCC)C(=O)CN(CCCCCCCCCC)C(=O)CN(CCc1ccccc1)C(=O)CN(CCc1ccccc1)C(=O)CN(CCN)C(=O)CN(CCc1ccccc1)C(=O)CN(CCc1ccccc1)C(=O)CNCCN [Compound 20]
result.number: 0.37
--
compound: CCCCCCCCCCN(CC(N)=O)C(=O)CN(CCCCCCCCCC)C(=O)CN(CCCCCCCCCC)C(=O)CN(CCc1ccccc1)C(=O)CN(CCc1ccccc1)C(=O)CN(CCN)C(=O)CN(CCc1ccccc1)C(=O)CN(CCc1ccccc1)C(=O)CN(CCN)C(=O)CN(CCc1ccccc1)C(=O)CN(CCc1ccccc1)C(=O)CNCCN [Compound 7]
result.number: 0.177
